# Lookup of reported IC50 keyed by entry
biological target: acetylcholinesterase (AChE) (Homo sapiens); assay: biochemical; settings: in vitro, 25 °C, pH 8.0, triplicate; standards listed separately for series 1–13 and 14–26; read-out: AChE Inhibition IC50 ± SEM
Sequence (P22303 32-614, species assumed): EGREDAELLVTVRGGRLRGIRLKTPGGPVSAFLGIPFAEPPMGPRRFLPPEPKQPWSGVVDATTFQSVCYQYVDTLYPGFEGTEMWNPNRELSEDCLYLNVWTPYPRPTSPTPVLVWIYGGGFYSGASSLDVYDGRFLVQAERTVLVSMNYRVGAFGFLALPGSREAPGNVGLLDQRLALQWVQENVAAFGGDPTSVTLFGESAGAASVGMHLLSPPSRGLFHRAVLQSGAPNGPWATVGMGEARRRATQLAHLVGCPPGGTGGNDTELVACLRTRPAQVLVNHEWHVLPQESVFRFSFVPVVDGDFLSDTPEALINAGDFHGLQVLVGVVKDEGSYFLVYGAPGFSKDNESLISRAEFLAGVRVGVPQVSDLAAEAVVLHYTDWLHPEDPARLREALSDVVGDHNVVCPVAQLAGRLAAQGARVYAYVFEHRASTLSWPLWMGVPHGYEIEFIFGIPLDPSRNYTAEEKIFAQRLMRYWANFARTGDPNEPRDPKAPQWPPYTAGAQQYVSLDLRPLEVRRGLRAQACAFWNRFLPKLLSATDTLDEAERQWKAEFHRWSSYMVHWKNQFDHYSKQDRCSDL
# unit: µM | format: bare number

See these solved cases before continuing.
- Compound: "Cc1ccc(/C(CSc2nc3ccccc3[nH]2)=N\\N=C\\N2CCCCC2)cc1 [Compound 19]"
  Target under test: "acetylcholinesterase (AChE) (Homo sapiens)"
  IC50, µM: 33.2
- Compound: "COc1ccc(/C(CSc2nc3cc([N+](=O)[O-])ccc3[nH]2)=N\\N=C\\N2CCCCC2)cc1 [Compound 24]"
  Target under test: "acetylcholinesterase (AChE) (Homo sapiens)"
  IC50, µM: 32.1
- Compound: "O=[N+]([O-])c1cccc(/C(CSc2nc3ccccc3[nH]2)=N\\N=C\\c2cc[nH]c2)c1 [Compound 6]"
  Target under test: "acetylcholinesterase (AChE) (Homo sapiens)"
  IC50, µM: 28.1
- Compound: "O=[N+]([O-])c1cccc(/C(CSc2nc3ccccc3[nH]2)=N\\N=C\\N2CCCCC2)c1 [Compound 20]"
  Target under test: "acetylcholinesterase (AChE) (Homo sapiens)"
  IC50, µM: 29
- Compound: "COc1ccccc1/C(CSc1nc2ccccc2[nH]1)=N\\N=C\\c1cc[nH]c1 [Compound 8]"
  Target under test: "acetylcholinesterase (AChE) (Homo sapiens)"
  IC50, µM: 21

Problem: Entry COc1ccc2[nH]c(SC/C(=N/N=C/N3CCCCC3)c3ccc(C)cc3)nc2c1 [Compound 18] : reported IC50 = ?
Solution: 36.2

Problem: Recorded IC50 of COc1ccc2[nH]c(SC/C(=N/N=C/c3cc[nH]c3)c3ccccc3OC)nc2c1 [Compound 4] , please.
Solution: 26.2

Problem: Please report the recorded IC50 for COc1ccc(/C(CSc2nc3ccccc3[nH]2)=N\N=C\c2cc[nH]c2)cc1 [Compound 9] .
Solution: 24.2
